Cited source for all entries: paper PMC5486114

- TARGET_OF_ASSAY: Human recombinant FGF-1 (Homo sapiens, UniProt P05230)
- Construct: Human recombinant FGF-1 consisting of 141 residues; purchased Peprotech; host or cells: E. coli
- Sequence (P05230 with tags, fused parts or gaps limits assumed): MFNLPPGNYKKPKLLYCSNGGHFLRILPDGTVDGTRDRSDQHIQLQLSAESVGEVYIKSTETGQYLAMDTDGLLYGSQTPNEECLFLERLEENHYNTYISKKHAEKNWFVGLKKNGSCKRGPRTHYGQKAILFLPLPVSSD
- EXPERIMENTAL_PROTOCOL: STD-NMR initial growth rates (STD0) of trisaccharides in presence of FGF-1
- Type: binding
- CONDITION_NOTES: anomeric proton of ring A; 600 MHz, 289 K; protein 19 µM, ligand 1.6 mM
Recorded STD0 H1-A by entry
Just the number, please, no unit after it.

CC(=O)N[C@H]1[C@@H](OC(C)C)O[C@H](COS(=O)(=O)O)[C@@H](O[C@@H]2O[C@@H](C(=O)O)[C@@H](O[C@H]3O[C@H](COS(=O)(=O)O)[C@@H](O)[C@H](O)[C@H]3NS(=O)(=O)O)[C@H](O)[C@H]2OS(=O)(=O)O)[C@@H]1O : 0.11

Now examine the next entry.
So what does the record say about STD0 H1-A for "CC(C)O[C@H]1O[C@H](CO)[C@@H](O[C@@H]2O[C@@H](C(=O)O)[C@@H](O[C@H]3O[C@H](COS(=O)(=O)O)[C@@H](O)[C@H](O)[C@H]3NS(=O)(=O)O)[C@H](O)[C@H]2OS(=O)(=O)O)[C@H](O)[C@H]1NS(=O)(=O)O" ?
0.07
